Provide the recorded CC50 cell viability for the entries that follow.
# System: B16 melanoma cells
# method_summary: Cell viability of B16 melanoma cells (MTT)
# experimental_conditions: B16 melanoma cells, MTT
# Procedure: This assay was performed as described by Arung et al.. The mouse melanoma cell line B16 was obtained from the Riken Bioresource Center Cell Bank (Tsukuba, Japan). […] After 24 h, the melanin content and the cell viability were measured using a microplate reader (BioTek-ELX800, BioTek Instruments, Winooski, VT, USA) at 405 nm and 570 nm, respectively. Cell viability was measured using the MTT (3-(4,5-dimethylthiazol-2-yl)-2,5-diphenyltetrazolium bromide) method.
Report as a plain number; the unit µg/mL is understood.

Look at this molecule and give its reported CC50 cell viability. C[C@@H]1CC[C@]2(C(=O)O)CC[C@]3(C)C(=CC[C@@H]4[C@@]5(C)C[C@@H](O)[C@H](OC(=O)/C=C\c6ccc(O)cc6)C(C)(C)[C@@H]5CC[C@]43C)[C@@H]2[C@]1(C)O (relative stereo) [Compound 18, 3-O-cis-p-coumaroyl tormentic acid]
12.6

Reported CC50 cell viability, molecule C[C@H]1[C@H](C)CC[C@]2(C(=O)O)CC[C@]3(C)C(=CC[C@@H]4[C@@]5(C)CCC(=O)C(C)(C)[C@@H]5CC[C@]43C)[C@H]12 [Compound 13, 3-oxours-12-en-28-oic acid] : ____
4.0

Value lookup for CC50 cell viability; key = COC(=O)[C@]12CCC(C)(C)C[C@@H]1C1=CC[C@@H]3[C@@]4(C)C[C@@H](O)[C@H](O)C(C)(C)C4CC[C@@]3(C)[C@]1(C)CC2 (stereo partly shown) [Compound 5, Methyl maslinate]
8.4

---

Give measured IC50 for each item. Keep answers brief.
# Test system: B16 melanoma cells
# method_summary: Anti-melanogenesis assay (melanin content)
# Assay type: cell-based, mouse
# experimental_conditions: B16 melanoma cells; read-out: IC50 (melanin synthesis)
Field format: number, assumed µM, no unit text.

What IC50 value was documented for this molecule, "C[C@@H]1CC[C@]2(C(=O)O)CC[C@]3(C)C(=CC[C@@H]4[C@@]5(C)C[C@@H](O)[C@H](O)C(C)(C)[C@@H]5CC[C@]43C)[C@@H]2[C@]1(C)O" ?
18.5

Data request, read-out IC50, for COC(=O)[C@]12CCC(C)(C)C[C@@H]1C1=CC[C@@H]3[C@@]4(C)C[C@@H](O)[C@H](O)C(C)(C)C4CC[C@@]3(C)[C@]1(C)CC2 (stereo partly drawn) [Compound 5, Methyl maslinate]
12.8

Form field: reported IC50 of "C[C@H]1[C@H](C)CC[C@]2(C(=O)O)CC[C@]3(C)C(=CC[C@@H]4[C@@]5(C)CCC(=O)C(C)(C)[C@@H]5CC[C@]43C)[C@H]12"
18

---

# System: B16 melanoma cells
# method_summary: Cell viability of B16 melanoma cells (MTT)
# experimental_conditions: read-out: CC50 (cell viability); B16 melanoma cells, MTT
Could you please report measured CC50 for the items listed next?
Report as a plain number; the unit µM is understood.

Reported CC50, compound "C[C@@H]1CC[C@]2(C(=O)O)CC[C@]3(C)C(=CC[C@@H]4[C@@]5(C)C[C@@H](O)[C@H](O)C(C)(C)[C@@H]5CC[C@]43C)[C@@H]2[C@]1(C)O" : ____
23.3

# query: CC50 of entry "C[C@H]1[C@H](C)CC[C@]2(C(=O)O)CC[C@]3(C)C(=CC[C@@H]4[C@@]5(C)CCC(=O)C(C)(C)[C@@H]5CC[C@]43C)[C@H]12"
8.9

What measured CC50 goes with C[C@@H]1CC[C@]2(C(=O)O)CC[C@]3(C)C(=CC[C@@H]4[C@@]5(C)C[C@@H](O)[C@H](OC(=O)/C=C/c6ccc(O)cc6)C(C)(C)[C@@H]5CC[C@]43C)[C@@H]2[C@]1(C)O (relative stereo) [Compound 17, 3-O-trans-p-coumaroyl tormentic acid] ?
24

---

# System: RBL-2H3 cells
# method_summary: Cell viability of RBL-2H3 cells (parallel MTT)
# Assay type: cell-based, rat
# experimental_conditions: 25 μg/ml, RBL-2H3 cells
endpoint_label: Cell viability (%)
Numeric only. Scale: %

Suppose we examine the compound COC(=O)[C@]12CC[C@@H](C)[C@H](C)[C@H]1C1=CC[C@@H]3[C@@]4(C)C[C@@H](O)[C@H](O)C(C)(C)[C@@H]4CC[C@@]3(C)[C@]1(C)CC2 [Compound 6, methyl corosolate] ; what Cell viability value has been reported?
97.6

# query: Cell viability of entry C[C@@H]1CC[C@]2(C(=O)O)CC[C@]3(C)C(=CC[C@@H]4[C@@]5(C)C[C@@H](O)[C@H](O)C(C)(C)[C@@H]5CC[C@]43C)[C@@H]2[C@]1(C)O [Compound 11, tormentic acid]
62.6

Report Cell viability for C[C@@H]1CC[C@]2(C(=O)O)CC[C@]3(C)C(=CC[C@@H]4[C@@]5(C)C[C@@H](O)C(=O)C(C)(C)[C@@H]5CC[C@]43C)[C@@H]2[C@]1(C)O [Compound 15] please.
102.1

Requested field: Cell viability. Item: COC(=O)[C@]12CCC(C)(C)C[C@@H]1C1=CC[C@@H]3[C@@]4(C)C[C@@H](O)[C@H](O)C(C)(C)C4CC[C@@]3(C)[C@]1(C)CC2 (stereo partly drawn) [Compound 5, Methyl maslinate]
105.8

If you can, please state the reported Cell viability value of C[C@@H]1CC[C@]2(C(=O)O)CC[C@]3(C)C(=CC[C@@H]4[C@@]5(C)CCC(=O)C(C)(C)[C@@H]5[C@H](O)C[C@]43C)[C@@H]2[C@]1(C)O [Compound 14] .
66.8

Return reported Cell viability; argument: C[C@@H]1CC[C@]2(C(=O)O)CC[C@]3(C)C(=CC[C@@H]4[C@@]5(C)C[C@@H](O)[C@H](OC(=O)/C=C/c6ccc(O)cc6)C(C)(C)[C@@H]5CC[C@]43C)[C@@H]2[C@]1(C)O (relative stereo) [Compound 17, 3-O-trans-p-coumaroyl tormentic acid]
99.8

May I ask what Cell viability has been recorded for C[C@H]1[C@H](C)CC[C@]2(C(=O)O)CC[C@]3(C)C(=CC[C@@H]4[C@@]5(C)C[C@@H](O)[C@@H](O)C(C)(C)[C@@H]5CC[C@]43C)[C@H]12 [Compound 9, 3-epicorosolic acid] ?
98.0

I'd like to know its Cell viability. The compound in question is C[C@H]1[C@H](C)CC[C@]2(C(=O)O)CC[C@]3(C)C(=CC[C@@H]4[C@@]5(C)CCC(=O)C(C)(C)[C@@H]5CC[C@]43C)[C@H]12 [Compound 13, 3-oxours-12-en-28-oic acid]
85.6

Could you tell me which Cell viability is on file for C[C@@H]1CC[C@]2(C(=O)O)CC[C@]3(C)C(=CC[C@@H]4[C@@]5(C)C[C@@H](O)[C@H](OC(=O)/C=C\c6ccc(O)cc6)C(C)(C)[C@@H]5CC[C@]43C)[C@@H]2[C@]1(C)O (relative stereo) [Compound 18, 3-O-cis-p-coumaroyl tormentic acid] ?
104.6

---

# Tested on: B16 melanoma cells
# method_summary: Cell viability of B16 melanoma cells (MTT)
# experimental_conditions: 1 μg/ml, B16 cells
Please use Fulfilled for Inhibition rate (100% − cell viability) under 4% and Not fulfilled for everything else, ties included.

Does the reported Inhibition rate (100% − cell viability) of C[C@@H]1CC[C@]2(C(=O)O)CC[C@]3(C)C(=CC[C@@H]4[C@@]5(C)CCC(=O)C(C)(C)[C@@H]5[C@H](O)C[C@]43C)[C@@H]2[C@]1(C)O [Compound 14] stay below 4%?
Fulfilled

Lab note: confirm whether the reported Inhibition rate (100% − cell viability) for this compound is below 4%, equality not counting. compound: C[C@@H]1CC[C@]2(C(=O)O)CC[C@]3(C)C(=CC[C@@H]4[C@@]5(C)C[C@@H](O)[C@H](OC(=O)/C=C/c6ccc(O)cc6)C(C)(C)[C@@H]5CC[C@]43C)[C@@H]2[C@]1(C)O (relative stereo) [Compound 17, 3-O-trans-p-coumaroyl tormentic acid]
Fulfilled

Given the entry COC(=O)[C@]12CC[C@@H](C)[C@H](C)[C@H]1C1=CC[C@@H]3[C@@]4(C)C[C@@H](O)[C@H](O)C(C)(C)[C@@H]4CC[C@@]3(C)[C@]1(C)CC2 [Compound 6, methyl corosolate] , would its reported Inhibition rate (100% − cell viability) be below 4%?
Not fulfilled

Dear reviewer, please state whether C[C@H]1[C@H](C)CC[C@]2(C(=O)O)CC[C@]3(C)C(=CC[C@@H]4[C@@]5(C)CCC(=O)C(C)(C)[C@@H]5CC[C@]43C)[C@H]12 [Compound 13, 3-oxours-12-en-28-oic acid] has Inhibition rate (100% − cell viability) strictly beneath 4%.
Not fulfilled

Please state whether Inhibition rate (100% − cell viability) is below 4% for CC1(C)CC[C@]2(C(=O)O)CC[C@]3(C)C(=CC[C@@H]4[C@@]5(C)CC[C@H](O)C(C)(C)[C@@H]5CC[C@]43C)[C@@H]2C1 [Compound 2, Oleanolic acid]
Not fulfilled
